The entries below come with measured protein stability index values attached.
B1: TPD52L1 (parent)
chain: ISKKFGDMSYSIRHSISMPAMRNS

variants of: B1; test: protein stability index of a GFP-peptide fusion (GPS, HEK-293T) (PSI 1-6); higher = more stable; conditions: c terminus: a fixed tail appended;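 note: lentivirally expressed fusions sorted by FACS into six bins by GFP to DsRed ratio, PSI derived from sequencing read proportions per bin multiplied by bin number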
Would you mind answering with just the numeric figure?

# mutant_name, parameter, result
measured = [
    ("D7W", "protein stability index", 1.9),
    ("S17Y", "protein stability index", 1.98),
    ("S11D", "protein stability index", 2.68),
    ("G6D", "protein stability index", 2.28),
    ("S9W", "protein stability index", 2.69),
    ("H14N", "protein stability index", 2.38),
    ("M8W", "protein stability index", 2.42),
    ("F5P", "protein stability index", 2.85),
    ("I12K", "protein stability index", 2.56),
    ("Y10V", "protein stability index", 2.94),
]

Query block: GET /values?readout=protein stability index&item= S17Q
Result block: 2.48

Query block: Next up: I16G
Result block: 2.51

Query block: Next up: G6K
Result block: 1.74

Query block: Next up: P19K
Result block: 1.83

Query block: Next up: I16R
Result block: 2.81

Query block: Next up: S2I
Result block: 2.97

Query block: Next up: N23R
Result block: 2.14

Query block: Next up: S15M
Result block: 1.91

Query block: Next up: R13N
Result block: 2.1

Query block: Next up: F5C
Result block: 2.26

Query block: Next up: M18E
Result block: 2.74

Query block: Next up: S15N
Result block: 2.37
